screen value values for the variants below.
B1: GST-tagged USP8 MIT domain (1-142) [human] / Girdin 1192-1207 peptide, cellulose-bound (SPOT array) [human] (parent complex)
chain 1: MPAVASVPKELYLSSSLKDLNKKTEVKPEKISTKSYVHSALKIFKTAEECRLDRDEERAYVLYMKYVTVYNLIKKRPDFKQQQDYFHSILGPGNIKKAVEEAERLSESLKLRYEEAEVRKKLEEKDRQEEAQRLQQKRQETG
chain 2: EVEHRDLEDRYNQLLK

variants of: B1; assay: SPOT array alanine scanning; read off a plot

1. chain 2 L15A ... ~-81%
2. chain 2 R10A ... ~-92%
3. chain 2 H4A ... ~65%
4. chain 2 V2A ... ~69%
5. chain 2 L14A ... ~-94%

Query: Please look at this variant and report its screen value: chain 2 K16A
Result: ~120%

Query: Please look at this variant and report its screen value: chain 2 L7A
Result: ~-100%

Query: Please look at this variant and report its screen value: chain 2 D6A
Result: ~40%

Query: Please look at this variant and report its screen value: chain 2 Q13A
Result: ~28%

Query: Please look at this variant and report its screen value: chain 2 Y11A
Result: ~-100%
